Provide the reported OD450 at 0.004 nM of each item.
- TARGET ENTITY: biotinylated labeled human GPC3 protein (produced in-house) (human, UniProt P51654 25-559, limits assumed, biotinylated (Dojindo, Cat. No. LK03); sites not stated)
- METHOD DESCRIPTION: ELISA, biotinylated human GPC3 protein
Answers are plain numbers, in OD450.

hAb007LH1L1 (antibody, human IgG1, V domains shown, Humanized F3.81.19; VH H1 + VL L1; expressed as human IgG1) VH: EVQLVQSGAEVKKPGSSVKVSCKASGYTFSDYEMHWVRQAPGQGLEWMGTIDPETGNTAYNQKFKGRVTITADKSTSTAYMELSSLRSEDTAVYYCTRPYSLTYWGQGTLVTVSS VL: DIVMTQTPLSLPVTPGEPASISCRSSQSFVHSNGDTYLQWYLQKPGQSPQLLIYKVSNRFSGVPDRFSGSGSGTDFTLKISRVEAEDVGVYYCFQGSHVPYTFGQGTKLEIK | 0.17
hAb005LH2L1a (antibody, human IgG1, V domains shown, Humanized F3.54.12; VH H2 + VL L1a; expressed as human IgG1) VH: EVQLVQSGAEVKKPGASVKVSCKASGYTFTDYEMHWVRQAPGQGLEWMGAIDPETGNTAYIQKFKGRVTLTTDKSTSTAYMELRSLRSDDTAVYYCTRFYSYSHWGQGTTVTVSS VL: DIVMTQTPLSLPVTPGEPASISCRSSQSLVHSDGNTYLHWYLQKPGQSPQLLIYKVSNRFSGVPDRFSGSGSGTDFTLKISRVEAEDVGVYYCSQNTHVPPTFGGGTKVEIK | 0.049

Look up OD450 at 0.004 nM of hAb006LH1L1a (antibody, human IgG1, V domains shown, Humanized F3.38.7; VH H1 + VL L1a; expressed as human IgG1) VH: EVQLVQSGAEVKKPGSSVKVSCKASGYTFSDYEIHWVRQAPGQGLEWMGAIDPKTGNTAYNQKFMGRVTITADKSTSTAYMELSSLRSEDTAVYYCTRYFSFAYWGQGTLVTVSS VL: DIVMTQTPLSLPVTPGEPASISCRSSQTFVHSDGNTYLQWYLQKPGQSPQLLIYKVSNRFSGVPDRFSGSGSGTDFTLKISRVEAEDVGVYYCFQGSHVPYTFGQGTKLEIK and report it.
0.078
